Where do these numbers come from? They come from PubChem BioAssay (NCI).

tested on: HCT-15 colon; test: NCI-60 one-dose screen, 48 h (100 = growth as untreated, 0 = no growth, -100 = all killed); details: 10 µM unless noted
About 83,000 compounds went through this panel and 20% of them were active in at least one assay; those are over-represented in the sample as a whole.
Each item that follows carries a reported growth.
# number only, unit % dropped from output

// known answers, use as guide
• CN(C)c1ccc(C#Cc2c(F)cccc2Cl)cc1 = 78.4
• CCNCCNc1cc(C2CCCC2)c(C#N)c2nc3ccccc3n12 = 26.8
• O=C(CCCCCCCn1cc(-c2cccnc2)nn1)Nc1ccccc1-c1ccccc1 = 24.1
• CCN(CC)CCOc1ccc(/C(=C(\C)c2ccc(F)c(OC)c2)c2ccc(Cl)cc2)cc1 = 2.58

Entry `CCn1c(Sc2nnc(NC(=O)CCN3CCCC3)s2)nc2c1c(=O)n(C)c(=O)n2C` ; growth = 104

Entry `C=C(C)[C@@H]1CC[C@]2(C(=O)NCC(=O)O)CC[C@]3(C)[C@H](CC[C@@H]4[C@@]5(C)Cc6c([nH]c7ccccc67)C(C)(C)[C@@H]5CC[C@]43C)[C@@H]12` ; growth = 77.5

Entry `CC1(C)C(=O)/C(=C\c2cccnc2)C[C@]2(C)[C@H]3CC=C4[C@@H]5C[C@@](C)(C(=O)O)CC[C@]5(C)CC[C@@]4(C)[C@]3(C)CC[C@@H]12` ; growth = 87.5

Entry `c1ccc2c(c1)nc(-n1ccnc1)c1nc3ccccc3n12` ; growth = 82.7

Entry CCO/C=N/C1=C(C#N)C(c2ccc(OC)cc2)c2c(c3ccccc3n(C)c2=O)O1 (centres undefined) ; growth = 103

* * *

tested on: HCT-116 colon; assay: NCI-60 one-dose screen, 48 h (100 = growth as untreated, 0 = no growth, -100 = all killed); details: 10 µM unless noted
The panel holds about 83,000 compounds, 20% with a hit somewhere; the sample as a whole holds those more often.
Each item that follows carries a reported growth.
# number only, unit % dropped from output

* CCCCCCCSc1ccc(C(=O)O)cc1 | 99.3
* OC(CBr)c1ccnc2ccccc12 (centres undefined) | 90.7
* O=[N+]([O-])c1cccc(/C=C/c2ccccn2)c1 | 39.6

With those in mind, consider the next compound.
Entry `Nc1ccc(-c2cc3c(Nc4ccc(OCc5cccc(F)c5)c(Cl)c4)ncnc3s2)cc1` ; assay system HCT-116 colon; growth recorded at 50.7

* * *

system: SK-MEL-28 melanoma; assay: NCI-60 one-dose screen, 48 h (100 = growth as untreated, 0 = no growth, -100 = all killed); conditions: 10 µM unless noted
Compounds without any hit were thinned out: in the full panel of roughly 83,000, 20% have a hit.
REPORTED_METRIC: growth (%)
# number only, unit % dropped from output

• COc1ccc(Oc2nc(Nc3ccc(N4CCOCC4)nc3)ncc2NC(=O)c2cc(OC)cc(OC)c2)cc1 = 79.8
• O[C@H]1CO[C@H]2[C@@H]1OC[C@@H]2Oc1ccc(Nc2nc(Nc3ccc(F)c(Cl)c3)ncc2F)cc1Cl = 99.7
• C[C@]12CCC(=O)C[C@H]1CC[C@@H]1[C@@H]2CC[C@@]2(C)[C@H]1CC[C@]2(O)C(=O)CO = 108
• CN1CCN(c2ccc(Nc3ncc(Cl)c(NC[C@@H]4CCCO4)n3)cc2)CC1 = 50.9

Entry `CC(C)(C)Nc1c(-c2c3ccccc3cc3ccccc23)nc2ccccn12` ; growth = 82.2

Entry `COc1ccc2cc(-c3ccc(C(=O)NN)c(C)n3)ccc2c1` ; growth = 93.7

Entry `COc1cc(CNC(=O)/C=C/C=C/c2ccc3c(c2)OCO3)ccc1OCc1cn(-c2ccc(Cl)c(Cl)c2)nn1` ; growth = 6.52
